Each entry below carries its reported C0.
Experiment: PK study in Beagle dogs (plasma)
Type: in vivo
Details: dog, IV 1 mg/kg
Give just the numeric value; ng/mL need not be written.

COMPOUND	OBS_VALUE
CCc1c(F)ccc2cc(O)cc(-c3ncc4c(N5CCC[C@@](C)(O)C5)nc(OCC5(CN6CCC(Oc7cnc(-c8cn([C@H](C(=O)N9C[C@H](O)C[C@H]9C(=O)N[C@@H](C)c9ccc(-c%10scnc%10C)cc9)C(C)C)nn8)cn7)CC6)CC5)nc4c3F)c12 [Compound 144]	9890

State the recorded C0 for this entry: CCc1c(F)ccc2cc(O)cc(-c3ncc4c(N5CCC[C@@](C)(O)C5)nc(OCC5(CN6CCC(Oc7ccc(-c8cn([C@H](C(=O)N9C[C@H](O)C[C@H]9C(=O)N[C@@H](C)c9ccc(-c%10scnc%10C)cc9)C(C)C)nn8)cn7)CC6)CC5)nc4c3F)c12 [Compound 135]
11000
